Molecular target: T1, Human TROP2 ECD (31-274 AA), biotinylated (human, UniProt P09758 31-274, biotinylated (site not stated))
T1 construct: also called tumor-associated calcium signal transducer 2; Human TROP2-biotin
T1 sequence: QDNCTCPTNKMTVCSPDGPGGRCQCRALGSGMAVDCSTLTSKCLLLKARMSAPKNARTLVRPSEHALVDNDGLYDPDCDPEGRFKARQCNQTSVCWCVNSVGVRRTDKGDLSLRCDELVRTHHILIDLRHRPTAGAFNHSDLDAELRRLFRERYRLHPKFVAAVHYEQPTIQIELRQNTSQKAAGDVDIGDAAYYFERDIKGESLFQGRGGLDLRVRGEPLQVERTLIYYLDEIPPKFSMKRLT
Assay: BLI (Octet), biotinylated human TROP2 ECD on SAX sensor, Fab 6.25-50 nM
readout_label: Kd

binder	result
TBD-22 (anti-TROP2 Fab, HC D109A) (Fab, V domains shown, also called TBD-22 (HC D109A mutant)) VH: QVQLQQSGSELKKPGASVKVSCKASGYTFTNYGMNWVKQAPGQGLKWMGWINTYTGEPTYTDDFKGRFAFSLDTSVSTAYLQISSLKADDTAVYFCARGGFGSSYWYFAVWGQGSLVTVSS VL: DIQLTQSPSSLSASVGDRVSITCKASQDVSIAVAWYQQKPGKAPKLLIYSASYRYTGVPDRFSGSGSGTDFTLTISSLQPEDFAVYYCQQHYITPLTFGAGTKVEIKR	2.35 nM
TBD-21 (anti-TROP2 Fab, HC F108A) (Fab, V domains shown, also called TBD-21 (HC F108A mutant)) VH: QVQLQQSGSELKKPGASVKVSCKASGYTFTNYGMNWVKQAPGQGLKWMGWINTYTGEPTYTDDFKGRFAFSLDTSVSTAYLQISSLKADDTAVYFCARGGFGSSYWYADVWGQGSLVTVSS VL: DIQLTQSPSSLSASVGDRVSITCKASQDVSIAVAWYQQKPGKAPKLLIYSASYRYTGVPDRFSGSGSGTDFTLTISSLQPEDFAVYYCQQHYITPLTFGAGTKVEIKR	4.76 nM
TBD-20 (anti-TROP2 Fab, HC Y107A) (Fab, V domains shown) VH: QVQLQQSGSELKKPGASVKVSCKASGYTFTNYGMNWVKQAPGQGLKWMGWINTYTGEPTYTDDFKGRFAFSLDTSVSTAYLQISSLKADDTAVYFCARGGFGSSYWAFDVWGQGSLVTVSS VL: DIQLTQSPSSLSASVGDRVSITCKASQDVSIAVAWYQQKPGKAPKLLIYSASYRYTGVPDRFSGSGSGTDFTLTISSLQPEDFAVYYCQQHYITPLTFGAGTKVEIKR	6.34 nM

We next turn to a different binder, shown below.
Req: Give the value of Kd reported for the following: TBD-23 (anti-TROP2 Fab, HC V110A) (Fab, V domains shown) VH: QVQLQQSGSELKKPGASVKVSCKASGYTFTNYGMNWVKQAPGQGLKWMGWINTYTGEPTYTDDFKGRFAFSLDTSVSTAYLQISSLKADDTAVYFCARGGFGSSYWYFDAWGQGSLVTVSS VL: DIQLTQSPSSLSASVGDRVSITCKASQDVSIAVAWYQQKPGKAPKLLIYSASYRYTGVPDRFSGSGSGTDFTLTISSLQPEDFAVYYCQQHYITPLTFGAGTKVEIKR
Resp: 0.401 nM
